Each recorded value in this set is attributed to patent EP3130594B1.

# Tested on: brain glioma SNB-19
# experimental_protocol: Cytotoxic activity in vitro, WST1 test
# Assay type: cell-based
# condition_context: Homo sapiens, SNB-19 cells, read-out: Cytotoxic activity in vitro as IC50

structure	IC50
CC#CC(=O)OC[C@]12CC[C@@H](/C(C)=C/P(=O)(OCC)OCC)[C@@H]1[C@H]1CC[C@@H]3[C@@]4(C)CC[C@H](O)C(C)(C)[C@@H]4CC[C@@]3(C)[C@]1(C)CC2	7.5 µg/mL
C#CCOC(=O)OC[C@]12CC[C@@H](/C(C)=C/P(=O)(OCC)OCC)[C@@H]1[C@H]1CC[C@@H]3[C@@]4(C)CC[C@H](OC(=O)OCC#C)C(C)(C)[C@@H]4CC[C@@]3(C)[C@]1(C)CC2	0.5 µg/mL
C=C(C)[C@@H]1CC[C@]2(CO)CC[C@]3(C)[C@H](CC[C@@H]4[C@@]5(C)CC[C@H](O)C(C)(C)[C@@H]5CC[C@]43C)[C@@H]12	23.5 µg/mL
C=C(CP(=O)(OCC)OCC)[C@@H]1CC[C@]2(COC(C)=O)CC[C@]3(C)[C@H](CC[C@@H]4[C@@]5(C)CC[C@H](OC(C)=O)C(C)(C)[C@@H]5CC[C@]43C)[C@@H]12	51.9 µg/mL
C#CCOC(=O)OC[C@]12CC[C@@H](/C(C)=C/P(=O)(OCC)OCC)[C@@H]1[C@H]1CC[C@@H]3[C@@]4(C)CC[C@H](O)C(C)(C)[C@@H]4CC[C@@]3(C)[C@]1(C)CC2	24.5 µg/mL
CC#CC(=O)OC[C@]12CC[C@@H](/C(C)=C/P(=O)(OCC)OCC)[C@@H]1[C@H]1CC[C@@H]3[C@@]4(C)CC[C@H](OC(=O)C#CC)C(C)(C)[C@@H]4CC[C@@]3(C)[C@]1(C)CC2	7.6 µg/mL

====

# Tested on: breast cancer T47D
# experimental_protocol: Cytotoxic activity in vitro, WST1 test
# Format: cell-based, human
# condition_context: Homo sapiens, T47D cells, Neg = no activity in the applied concentration range, read-out: Cytotoxic activity in vitro as IC50

molecule	IC50
CC#CC(=O)OC[C@]12CC[C@@H](/C(C)=C/P(=O)(OCC)OCC)[C@@H]1[C@H]1CC[C@@H]3[C@@]4(C)CC[C@H](OC(=O)C#CC)C(C)(C)[C@@H]4CC[C@@]3(C)[C@]1(C)CC2	13.9 µg/mL
CCOP(=O)(/C=C(/C)[C@@H]1CC[C@]2(CO)CC[C@]3(C)[C@H](CC[C@@H]4[C@@]5(C)CC[C@H](O)C(C)(C)[C@@H]5CC[C@]43C)[C@@H]12)OCC [cis R = R1 = Et, R2 =OH, R3 = CH2OH, Z - 29 - Diethoxyphosphorylbetulin]	0.9 µg/mL
CCOP(=O)(/C=C(\C)[C@@H]1CC[C@]2(CO)CC[C@]3(C)[C@H](CC[C@@H]4[C@@]5(C)CC[C@H](O)C(C)(C)[C@@H]5CC[C@]43C)[C@@H]12)OCC [trans R = R1 =Et, R2= OH, R3 = CH2OH, E-29-Diethoxyphosphorylbetulin]	6.2 µg/mL
CCOP(=O)(/C=C(\C)[C@@H]1CC[C@]2(COC(=O)C#CC3CC3)CC[C@]3(C)[C@H](CC[C@@H]4[C@@]5(C)CC[C@H](O)C(C)(C)[C@@H]5CC[C@]43C)[C@@H]12)OCC	8.2 µg/mL
